- Test system: MPNST multicellular tumor spheroids, viability % test/control
- protocol.summary: Anticancer human tumor MPNST cell line growth inhibition;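 further: luminescence signal used as surrogate for viable cell amount; spheroids exposed to agents for seven days after three days of growth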
- condition.details: second compound 30 pM; first compound 0.0949 µM; active compounds read low
quantity.name: viability, T/C (%)

>  <molecule>
O=C(c1cc(Cc2n[nH]c(=O)c3ccccc23)ccc1F)N1CCN(C(=O)C2CC2)CC1 + COc1cc2c(cc1O)CCNC21CSC2c3c(OC(C)=O)c(C)c4c(c3C(COC1=O)N1C(O)C3Cc5cc(C)c(OC)c(O)c5C(C21)N3C)OCO4

>  <system.name>
MPNST multicellular tumor spheroids, viability % test/control

>  <quantity.name>
viability, T/C

>  <experimental.result>
91.7

$$$$
>  <molecule>
CNCc1ccc(-c2cc(-c3nc(-c4ccc(S(=O)(=O)C(C)C)cc4)cnc3N)on2)cc1 + COc1cc2c(cc1O)CCNC21CSC2c3c(OC(C)=O)c(C)c4c(c3C(COC1=O)N1C(O)C3Cc5cc(C)c(OC)c(O)c5C(C21)N3C)OCO4

>  <system.name>
MPNST multicellular tumor spheroids, viability % test/control

>  <quantity.name>
viability, T/C

>  <experimental.result>
63.5

$$$$
>  <molecule>
Cn1ncnc1[C@H]1c2n[nH]c(=O)c3cc(F)cc(c23)N[C@@H]1c1ccc(F)cc1 + COc1cc2c(cc1O)CCNC21CSC2c3c(OC(C)=O)c(C)c4c(c3C(COC1=O)N1C(O)C3Cc5cc(C)c(OC)c(O)c5C(C21)N3C)OCO4

>  <system.name>
MPNST multicellular tumor spheroids, viability % test/control

>  <quantity.name>
viability, T/C

>  <experimental.result>
58.3

$$$$
>  <molecule>
Cc1sc2c(c1C)C(c1ccc(Cl)cc1)=NC(CC(=O)Nc1ccc(O)cc1)c1nnc(C)n1-2 (centres undefined) + COc1cc2c(cc1O)CCNC21CSC2c3c(OC(C)=O)c(C)c4c(c3C(COC1=O)N1C(O)C3Cc5cc(C)c(OC)c(O)c5C(C21)N3C)OCO4

>  <system.name>
MPNST multicellular tumor spheroids, viability % test/control

>  <quantity.name>
viability, T/C

>  <experimental.result>
85.7

$$$$

* * *

Below, each of the molecules is paired with its reported viability, T/C value.
- Test system: MPNST multicellular tumor spheroids, viability % test/control
- protocol.summary: Anticancer human tumor MPNST cell line growth inhibition;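 further: luminescence signal used as surrogate for viable cell amount; spheroids exposed to agents for seven days after three days of growth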
- condition.details: second compound 0.3 µM; first compound 1 µM; active compounds read low

>  <molecule>
COc1ccc([C@@H](O)c2cc(-c3ncnc4cc(N5CCOCC5)ccc34)c(F)cc2Cl)nn1 + CC[C@@]1(O)C(=O)OCc2c1cc1n(c2=O)Cc2cc3c(CN(C)C)c(O)ccc3nc2-1

>  <viability, T/C, %>
27.6

$$$$
>  <molecule>
Cc1cc(C)c(CNC(=O)c2cc(-c3ccc(CN4CCOCC4)cc3)cc3c2cnn3C2CCCC2)c(=O)[nH]1 + CC[C@@]1(O)C(=O)OCc2c1cc1n(c2=O)Cc2cc3c(CN(C)C)c(O)ccc3nc2-1

>  <viability, T/C, %>
37.8

$$$$
>  <molecule>
COc1cc(C)[nH]c(=O)c1CN1CCc2c(Cl)cc(C(OC)C3COC3)c(Cl)c2C1=O (stereo unspecified) + CC[C@@]1(O)C(=O)OCc2c1cc1n(c2=O)Cc2cc3c(CN(C)C)c(O)ccc3nc2-1

>  <viability, T/C, %>
37.3

$$$$
>  <molecule>
CC1COCCN1c1cc(-c2ccnn2C)c2ccnc(-c3ccn[nH]3)c2n1 (stereo unspecified) + CC[C@@]1(O)C(=O)OCc2c1cc1n(c2=O)Cc2cc3c(CN(C)C)c(O)ccc3nc2-1

>  <viability, T/C, %>
28.1

$$$$
>  <molecule>
[2H]c1nc(C)nc([2H])c1-c1cc(NC[C@@H](C)c2cccc3c(C(=O)NC)ccnc23)ncn1 + CC[C@@]1(O)C(=O)OCc2c1cc1n(c2=O)Cc2cc3c(CN(C)C)c(O)ccc3nc2-1

>  <viability, T/C, %>
30.8

$$$$
>  <molecule>
CC(C)n1c(=O)n(C)c2cnc3cc(F)c(-c4ccc(OCCCN5CCCCC5)nc4)cc3c21 + CC[C@@]1(O)C(=O)OCc2c1cc1n(c2=O)Cc2cc3c(CN(C)C)c(O)ccc3nc2-1

>  <viability, T/C, %>
34.9

$$$$
